Answer each item with its documented growth AUC normalised to DMSO control.
System: Haemophilus parainfluenzae
ASSAY SUMMARY: growth AUC normalised to DMSO control (fraction of control); higher = less growth inhibition, active = hit call of the paper
CONDITION SET: 20 µM
Where a name gives a salt, the structure may show the parent alone.
Number, no unit, nothing else.

Entry C1N2CN3CN1CN(C2)C3 ; growth AUC normalised to DMSO control = 1.05

Entry CC(C)(N)Cc1ccccc1 [Phentermine hydrochloride] ; growth AUC normalised to DMSO control = 1.02

Entry C=C1C[C@H]2[C@@H]3C=C(C)C4=CC(=O)CC[C@]4(C)[C@H]3CC[C@]2(C)[C@@]1(OC(C)=O)C(C)=O [Melengestrol acetate] ; growth AUC normalised to DMSO control = 1.06

Entry CCN[C@H]1CN(CCCOC)S(=O)(=O)c2sc(S(N)(=O)=O)cc21 [Brinzolamide] ; growth AUC normalised to DMSO control = 0.946

Entry Nc1ccc(S(=O)(=O)c2ccc(N)cc2)cc1 ; growth AUC normalised to DMSO control = 1

Entry CCCNC(C)C(=O)Nc1c(C)csc1C(=O)OC (stereo not given) [Articaine hydrochloride] ; growth AUC normalised to DMSO control = 1.01

Entry CN(C)CCOC(=O)COc1ccc(Cl)cc1 [Meclofenoxate hydrochloride] ; growth AUC normalised to DMSO control = 0.896

Entry Cc1scc2c1N(C(=O)CN1CCN(C)CC1)c1ccccc1NC2=O [Telenzepine dihydrochloride] ; growth AUC normalised to DMSO control = 1

Entry CC(=O)O[C@]1(C(C)=O)CC[C@H]2[C@@H]3C=C(Cl)C4=CC(=O)CC[C@]4(C)[C@H]3CC[C@@]21C [Chlormadinone acetate] ; growth AUC normalised to DMSO control = 1.01

Entry CC(=O)Oc1cc(C(F)(F)F)ccc1C(=O)O ; growth AUC normalised to DMSO control = 0.819

Entry Cc1cnc(C(=O)NCCc2ccc(S(=O)(=O)NC(=O)NC3CCCCC3)cc2)cn1 [Glipizide] ; growth AUC normalised to DMSO control = 0.995

Entry CC1c2cccc(O)c2C(O)=C2C(=O)C3(O)C(O)=C(C(N)=O)C(=O)C(N(C)C)C3C(O)C21 (stereo not given) [Doxycycline hydrochloride] ; growth AUC normalised to DMSO control = 0.0238

Entry Cc1onc(-c2c(F)cccc2Cl)c1C(=O)N[C@@H]1C(=O)N2[C@@H]1SC(C)(C)[C@@H]2C(=O)O [Flucloxacillin sodium] ; growth AUC normalised to DMSO control = 0.944

Entry O=C1c2ccccc2S(=O)(=O)N1CCCCN1CCN(c2ncccn2)CC1 ; growth AUC normalised to DMSO control = 0.979

Entry CCN[C@H]1C[C@H](C)S(=O)(=O)c2sc(S(N)(=O)=O)cc21 [Dorzolamide hydrochloride] ; growth AUC normalised to DMSO control = 1.03

Entry Cc1cccc(Nc2ccccc2C(=O)O)c1C ; growth AUC normalised to DMSO control = 0.946

Entry NC(=O)N1c2ccccc2C=Cc2ccccc21 [Carbamazepine] ; growth AUC normalised to DMSO control = 0.989

Entry O=C1CCc2ccc(OCCCCN3CCN(c4cccc(Cl)c4Cl)CC3)cc2N1 ; growth AUC normalised to DMSO control = 0.994

Entry CC(=O)c1ccc(S(=O)(=O)NC(=O)NC2CCCCC2)cc1 [Acetohexamide] ; growth AUC normalised to DMSO control = 0.971

Entry C[C@]12CCC(=O)C=C1CC[C@@H]1[C@@H]2C(=O)C[C@]2(C)C(=O)CC[C@@H]12 ; growth AUC normalised to DMSO control = 1.01

Entry CCCNC(C)C(=O)Nc1ccccc1C (stereo not given) [Prilocaine hydrochloride] ; growth AUC normalised to DMSO control = 1.01

Entry O=C(O)c1cc(/N=N/c2ccc(S(=O)(=O)Nc3ccccn3)cc2)ccc1O ; growth AUC normalised to DMSO control = 1.04

Entry NC(=O)NC1NC(=O)NC1=O (stereo not given) ; growth AUC normalised to DMSO control = 0.974

Entry CCn1cc(C(=O)O)c(=O)c2cc(F)c(N3CCNC(C)C3)c(F)c21 (stereo not given) [Lomefloxacin hydrochloride] ; growth AUC normalised to DMSO control = 0.04

Entry COc1ccc(/C=C/C(=O)Nc2ccccc2C(=O)O)cc1OC ; growth AUC normalised to DMSO control = 1.01

Entry O=C(NCCNCC(O)COc1ccc(O)cc1)N1CCOCC1 (stereo not given) [Xamoterol hemifumarate] ; growth AUC normalised to DMSO control = 0.775

Entry CNS(=O)(=O)Cc1ccc2[nH]cc(CCN(C)C)c2c1 [Sumatriptan succinate] ; growth AUC normalised to DMSO control = 0.984

Entry COc1ccc2c(c1)[C@]13CCCC[C@@H]1[C@H](C2)N(C)CC3 [Dextromethorphan hydrobromide monohydrate] ; growth AUC normalised to DMSO control = 1.02

Entry C[C@H](CCC(=O)O)[C@H]1CC[C@H]2[C@@H]3CC[C@@H]4C[C@H](O)CC[C@]4(C)[C@H]3CC[C@]12C ; growth AUC normalised to DMSO control = 1.04

Entry NS(=O)(=O)c1cc2c(cc1Cl)NC(CC1CCCC1)NS2(=O)=O (stereo not given) [Cyclopenthiazide] ; growth AUC normalised to DMSO control = 0.982

Entry C[C@]12CC[C@H]3C(=CCc4cc(O)ccc43)[C@@H]1CCC2=O ; growth AUC normalised to DMSO control = 1.02

Entry NCC1(CC(=O)O)CCCCC1 ; growth AUC normalised to DMSO control = 0.891

Entry CC(=O)CC(c1ccc([N+](=O)[O-])cc1)c1c(O)c2ccccc2oc1=O (stereo not given) ; growth AUC normalised to DMSO control = 0.992

Entry COc1ccc(C(=O)NCc2cccnc2)cc1C(=O)NCc1cccnc1 [Picotamide monohydrate] ; growth AUC normalised to DMSO control = 0.997

Entry Cc1c(Cl)cccc1Nc1ncccc1C(=O)O [Clonixin lysinate] ; growth AUC normalised to DMSO control = 1.06

====

System: Haemophilus parainfluenzae
ASSAY SUMMARY: growth AUC normalised to DMSO control (fraction of control); higher = less growth inhibition, active = hit call of the paper
CONDITION SET: 20 µM
Structures can show the parent of a compound that is named as a salt.
ENDPOINT: growth AUC normalised to DMSO control
Number, no unit, nothing else.

Entry C[C@@H]1C[C@H]2[C@@H]3C[C@H](F)C4=CC(=O)C=C[C@]4(C)[C@@]3(Cl)[C@@H](O)C[C@]2(C)[C@H]1C(=O)COC(=O)C(C)(C)C [Clocortolone pivalate] ; growth AUC normalised to DMSO control = 1.73

Entry Nc1nnc(-c2cccc(Cl)c2Cl)c(N)n1 ; growth AUC normalised to DMSO control = 1.01

Entry C=CCN1CCCC1CNC(=O)c1cc2nn[nH]c2cc1OC (configuration not stated) [Alizapride hydrochloride] ; growth AUC normalised to DMSO control = 1

Entry CN(Cc1cnc2nc(N)nc(N)c2n1)c1ccc(C(=O)N[C@@H](CCC(=O)O)C(=O)O)cc1 ; growth AUC normalised to DMSO control = 0.0201

Entry Nc1ccn([C@@H]2O[C@H](CO)[C@@H](O)[C@@H]2O)c(=O)n1 ; growth AUC normalised to DMSO control = 0.999

Entry CCc1ccc(CCOc2ccc(CC3SC(=O)NC3=O)cc2)nc1 (configuration not stated) ; growth AUC normalised to DMSO control = 0.955

Entry Clc1ccc(COC(Cn2ccnc2)c2ccc(Cl)cc2Cl)cc1 (configuration not stated) [Econazole nitrate] ; growth AUC normalised to DMSO control = 1.09

Entry CCCCN(CCCC)CCC(O)c1cc2c(Cl)cc(Cl)cc2c2cc(C(F)(F)F)ccc12 (configuration not stated) [Halofantrine hydrochloride] ; growth AUC normalised to DMSO control = 1.06

Entry Cc1ccc2c(c1)c1c3n2CCNC3CCC1 (configuration not stated) [Pirlindole mesylate] ; growth AUC normalised to DMSO control = 0.995

Entry CCCC[N+]1(C)[C@@H]2C[C@@H](OC(=O)[C@H](CO)c3ccccc3)C[C@H]1[C@@H]1O[C@@H]12 (some centres not stated) [N-Butylscopolammonium bromide] ; growth AUC normalised to DMSO control = 1

Entry COc1ccccc1N1CCN(CCCCNC(=O)c2ccc3ccccc3c2)CC1 ; growth AUC normalised to DMSO control = 0.997

Entry Oc1c(I)cc(Cl)c2cccnc12 ; growth AUC normalised to DMSO control = 1.03

Entry CCCCNc1c(C(=O)OCC)c(C)nc2c1cnn2CC [Tracazolate hydrochloride] ; growth AUC normalised to DMSO control = 1.04

Entry N=C(N)NC(=N)NCCc1ccccc1 [Phenformin hydrochloride] ; growth AUC normalised to DMSO control = 1.04

Entry CC(=O)[C@H]1CC[C@H]2[C@@H]3C=CC4=CC(=O)CC[C@@]4(C)[C@@H]3CC[C@]12C ; growth AUC normalised to DMSO control = 1.02

Entry CCCCN(CCCC)CCCOC(=O)c1ccc(N)cc1 ; growth AUC normalised to DMSO control = 0.998

Entry CN1CCN2c3ccccc3Cc3ccccc3C2C1 (configuration not stated) [Mianserine hydrochloride] ; growth AUC normalised to DMSO control = 0.903

// data source = the supplement of paper PMC12350171
